The values you see were collected from patent US20260207563A1.

- SUBJECT OF TEST: heteromeric KV7.2/KV7.3 channels (KCNQ2, KCNQ3) (Homo sapiens, UniProt O43525+O43526)
- Construct: expressed in transfected cells; host or cells: CHO-K1
- MEASUREMENT DESCRIPTION: Automated patch-clamp (Sophion Qube 384) potency assay against KV7.2/KV7.3 channels
- Type: cell-based
- STATED CONDITIONS: CHO-K1/Kv7.2/Kv7.3 cells; maximal shift in the Vhalf from the top of the curve
READOUT KIND: Kv7.2/7.3 ΔV1/2 (mV)

> print(dat)
                                   compound     readout.kind  recorded.result
1  C[C@@H](NC(=O)NCc1ccnc(OCC(F)(F)F)c1)c1ccc2c(c1)OC(F)(F)O2 [Compound 226]  Kv7.2/7.3 ΔV1/2             22.4
2  Cc1ccccc1NC(=O)NCc1ccnc(OCC(F)(F)F)c1 [Compound 46]  Kv7.2/7.3 ΔV1/2            21.41
3  O=C(NCc1ccnc(OCC(F)(F)F)n1)N[C@@H]1CCCc2ccccc21 [Compound 180]  Kv7.2/7.3 ΔV1/2            24.71
4  O=C(NCc1ccnc(OCC(F)(F)F)c1)Nc1cc(F)cc(Cl)c1 [Compound 77]  Kv7.2/7.3 ΔV1/2            32.37
5  O=C(NCCC1(C(F)(F)F)CC1)NCc1ccnc(C(F)(F)F)c1 [Compound 69]  Kv7.2/7.3 ΔV1/2            23.15
